B1: F1*; the commonest letter at each place (parent)
chain: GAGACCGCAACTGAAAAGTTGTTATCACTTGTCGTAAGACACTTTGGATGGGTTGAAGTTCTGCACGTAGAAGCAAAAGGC

Variants of: B1
Assay Comment: fraction ligated after 30 min (ligated reads / total reads); higher = more ligase activity
Condition Description: with F1*sub RNA substrate (template-directed ligation), 42 °C
Metric: fraction ligated
Form: value (number only, do not type unit).

// worked examples, fraction ligated included
• C28G C42T = 0.815
• G55A A57T = 0.801
• C33G T43G = 0.807
• A24T C28T = 0.794
• T43G A48G = 0.78
• T23G T29A = 0.824
• C26T C42G = 0.795
• T25C G34T = 0.786
• G34A A39T = 0.818
• T35C A36C = 0.8

Prompt line: Please report the measured fraction ligated for C28G A41T
Response line: 0.801

Prompt line: For the variant G38A T44C , give its measured fraction ligated value.
Response line: 0.818

Prompt line: Answer with the recorded fraction ligated of G55T A57T only.
Response line: 0.794
